- Study target: T1, human iASPP^621-828 (human, UniProt Q8WUF5 621-828)
- T1 construct: the protein preparation paragraph prints iASPP^608-828 in pGEX-6P2
- T1 sequence (looked up): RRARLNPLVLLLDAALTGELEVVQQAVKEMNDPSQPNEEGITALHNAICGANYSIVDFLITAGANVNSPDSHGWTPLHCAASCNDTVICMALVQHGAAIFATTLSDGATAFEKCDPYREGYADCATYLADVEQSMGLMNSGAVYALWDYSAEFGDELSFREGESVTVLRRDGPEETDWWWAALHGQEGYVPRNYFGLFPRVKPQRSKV
- Assay summary: ITC; PP1 peptides (350–550 μM) titrated into ASPP2^920-1120 (40 μM), 20 °C; 25 mM Tris pH 8.0, 200 mM NaCl, 0.5 mM TCEP; single binding site model; ASPP2 mutants and iASPP in place of ASPP2 for Fig. 6e
- Setup conditions: both partners purified
pKd: −log10 of the molar value.
Reported values of pKd for individual entries

| Binder | pKd |
| --- | --- |
| KNKGKYGQFSGLNPGGRPITPPRNSAAAAA (peptide, UniProt P62136 301-330, looked up, also called PP1α 3KA; source: synthetic peptide (LRI peptide synthesis core facility)) [PP1α^301-330 3KA peptide] | 6.16 |
| KNKGKYGQFSGLNPGGRPITPPRNSAKAKK (peptide, UniProt P62136 301-330, looked up, also called PP1α C-tail; source: synthetic peptide (LRI peptide synthesis core facility)) [PP1α^301-330 C-tail peptide] | 6.40 |
